Parameter: Bliss excess. Scope: all listed entries.
System: NY (Osteosarcoma)
procedure_summary: Bliss excess, mean over the matrix (fraction); higher = more synergy
Form rule: numeric answer, no unit written next to it.

INPUT: Hello, please tell me recorded Bliss excess for this one: C=CCn1c(=O)c2cnc(Nc3ccc(N4CCN(C)CC4)cc3)nc2n1-c1cccc(C(C)(C)O)n1 [AZD1775] + CCc1c2c(nc3ccc(O)cc13)-c1cc3c(c(=O)n1C2)COC(=O)[C@]3(O)CC [SN-38] (first compound max 1 µM, partner max 0.3 µM)
OUTPUT: -0.0575

INPUT: Hello, please tell me recorded Bliss excess for this one: C[C@@H](Oc1cc(-c2cnn(C3CCNCC3)c2)cnc1N)c1c(Cl)ccc(F)c1Cl [Crizotinib] + CC1=C(C(=CC=C1)Cl)NC(=O)C2=CN=C(S2)NC3=CC(=NC(=N3)C)N4CCN(CC4)CCO [Dasatinib] (first compound max 10 µM, 7x7, partner max 2 µM)
OUTPUT: 0.0882

INPUT: Hello, please tell me recorded Bliss excess for this one: CN(C)CCCOc1ccc(-c2ccc3ncc4c(c3c2)n(C2CCOCC2)c(=O)n4C)cn1 [AZD0156] + C=CCn1c(=O)c2cnc(Nc3ccc(N4CCN(C)CC4)cc3)nc2n1-c1cccc(C(C)(C)O)n1 [AZD1775] (first compound max 1 µM, partner max 1 µM)
OUTPUT: -0.0212

INPUT: Hello, please tell me recorded Bliss excess for this one: C=CCn1c(=O)c2cnc(Nc3ccc(N4CCN(C)CC4)cc3)nc2n1-c1cccc(C(C)(C)O)n1 [AZD1775] + Nc1ccn([C@@H]2O[C@H](CO)[C@@H](O)C2(F)F)c(=O)n1 [Gemcitabine] (first compound max 1 µM, partner max 0.3 µM)
OUTPUT: -0.0595

INPUT: Hello, please tell me recorded Bliss excess for this one: CC(=O)c1c(C)c2cnc(Nc3ccc(N4CCNCC4)cn3)nc2n(C2CCCC2)c1=O [Palbociclib] + CC1(C)CCC(CN2CCN(c3ccc(C(=O)NS(=O)(=O)c4ccc(NCC5CCOCC5)c([N+](=O)[O-])c4)c(Oc4cnc5[nH]ccc5c4)c3)CC2)=C(c2ccc(Cl)cc2)C1 [Venetoclax] (first compound max 10 µM, 7x7, partner max 1 µM)
OUTPUT: -0.0479

INPUT: Hello, please tell me recorded Bliss excess for this one: Cc1c2c(nn1C)CSCc1cc(n(C)n1)CSc1cc(c3ccccc3c1)OCCCc1c(C(=O)O)n(C)c3c-2c(Cl)ccc13 [AZD5991] + C[C@@H]1COCCN1C2=NC(=NC(=C2)C3(CC3)[S@](=N)(=O)C)C4=C5C=CNC5=NC=C4 [AZD6738] (first compound max 1 µM, 7x7, partner max 10 µM)
OUTPUT: 0.0486

INPUT: Hello, please tell me recorded Bliss excess for this one: CS(=O)(=O)CCNCc1ccc(-c2ccc3ncnc(Nc4ccc(OCc5cccc(F)c5)c(Cl)c4)c3c2)o1 [Lapatinib] + C[C@@H](Oc1cc(-c2cnn(C3CCNCC3)c2)cnc1N)c1c(Cl)ccc(F)c1Cl [Crizotinib] (first compound max 10 µM, 7x7, partner max 10 µM)
OUTPUT: -0.0118

###

Parameter: Bliss excess. Scope: all listed entries.
Test system: TT2609-C02 (Thyroid Gland Carcinoma)
procedure_summary: Bliss excess, mean over the matrix (fraction); higher = more synergy
Form rule: numeric answer, no unit written next to it.

Recorded Bliss excess, per entry:
INPUT: Hello, please tell me recorded Bliss excess for this one: Cn1cnc2c(F)c(Nc3ccc(Br)cc3Cl)c(C(=O)NOCCO)cc21 [Selumetinib] + CC(C)n1c(=O)n(C)c2cnc3cc(F)c(-c4ccc(OCCCN5CCCCC5)nc4)cc3c21 [AZD1390] (first compound max 10 µM, 7x7, partner max 0.3 µM)
OUTPUT: -0.0387

INPUT: Hello, please tell me recorded Bliss excess for this one: CN(CCO)CC[C@H](CSc1ccccc1)Nc1ccc(S(=O)(=O)NC(=O)c2ccc(N3CCC([C@@H](O)c4ccccc4-c4ccc(Cl)cc4)CC3)cc2)cc1S(=O)(=O)C(F)(F)F [AZD4320] + C1CN(CCC1(C(=O)N[C@@H](CCO)C2=CC=C(C=C2)Cl)N)C3=NC=NC4=C3C=CN4 [Capivasertib] (first compound max 1 µM, 7x7, partner max 3 µM)
OUTPUT: -0.0582

From here, focus on the item given below.
INPUT: Hello, please tell me recorded Bliss excess for this one: CC1(C)CCC(CN2CCN(c3ccc(C(=O)NS(=O)(=O)c4ccc(NCC5CCOCC5)c([N+](=O)[O-])c4)c(Oc4cnc5[nH]ccc5c4)c3)CC2)=C(c2ccc(Cl)cc2)C1 [Venetoclax] + C1CN(CCC1(C(=O)N[C@@H](CCO)C2=CC=C(C=C2)Cl)N)C3=NC=NC4=C3C=CN4 [Capivasertib] (first compound max 1 µM, 7x7, partner max 3 µM)
OUTPUT: -0.0391

###

Test system: IGR-37 (Melanoma)
procedure_summary: Bliss excess, mean over the matrix (fraction); higher = more synergy
assay_endpoint: Bliss excess
Form rule: numeric answer, no unit written next to it.

Recorded Bliss excess, per entry:
INPUT: Hello, please tell me recorded Bliss excess for this one: C[C@@H](Nc1cc(F)cc(F)c1)c1cc(C(=O)N(C)C)cc2c(=O)cc(N3CCOCC3)oc12 [AZD8186] + CC(=O)c1c(C)c2cnc(Nc3ccc(N4CCNCC4)cn3)nc2n(C2CCCC2)c1=O [Palbociclib] (first compound max 10 µM, 7x7, partner max 10 µM)
OUTPUT: 0.0795

INPUT: Hello, please tell me recorded Bliss excess for this one: CN(CCO)CC[C@H](CSc1ccccc1)Nc1ccc(S(=O)(=O)NC(=O)c2ccc(N3CCC([C@@H](O)c4ccccc4-c4ccc(Cl)cc4)CC3)cc2)cc1S(=O)(=O)C(F)(F)F [AZD4320] + C[C@@H](Nc1cc(F)cc(F)c1)c1cc(C(=O)N(C)C)cc2c(=O)cc(N3CCOCC3)oc12 [AZD8186] (first compound max 1 µM, 7x7, partner max 3 µM)
OUTPUT: 0.029

INPUT: Hello, please tell me recorded Bliss excess for this one: CC1(C)CCC(CN2CCN(c3ccc(C(=O)NS(=O)(=O)c4ccc(NCC5CCOCC5)c([N+](=O)[O-])c4)c(Oc4cnc5[nH]ccc5c4)c3)CC2)=C(c2ccc(Cl)cc2)C1 [Venetoclax] + C1CN(CCC1(C(=O)N[C@@H](CCO)C2=CC=C(C=C2)Cl)N)C3=NC=NC4=C3C=CN4 [Capivasertib] (first compound max 1 µM, 7x7, partner max 3 µM)
OUTPUT: -0.0448

INPUT: Hello, please tell me recorded Bliss excess for this one: Cc1c2c(nn1C)CSCc1cc(n(C)n1)CSc1cc(c3ccccc3c1)OCCCc1c(C(=O)O)n(C)c3c-2c(Cl)ccc13 [AZD5991] + CN(C)CCCOc1ccc(-c2ccc3ncc4c(c3c2)n(C2CCOCC2)c(=O)n4C)cn1 [AZD0156] (first compound max 1 µM, 7x7, partner max 1 µM)
OUTPUT: 0.0148

INPUT: Hello, please tell me recorded Bliss excess for this one: C[C@@H](Oc1cc(-c2cnn(C3CCNCC3)c2)cnc1N)c1c(Cl)ccc(F)c1Cl [Crizotinib] + CC1=C(C(=CC=C1)Cl)NC(=O)C2=CN=C(S2)NC3=CC(=NC(=N3)C)N4CCN(CC4)CCO [Dasatinib] (first compound max 10 µM, 7x7, partner max 2 µM)
OUTPUT: -0.0317

INPUT: Hello, please tell me recorded Bliss excess for this one: Cc1cc2ncnn2cc1Nc1ncc2c(n1)n(C1CCOCC1)c(=O)n2C [AZD7648] + C=CCn1c(=O)c2cnc(Nc3ccc(N4CCN(C)CC4)cc3)nc2n1-c1cccc(C(C)(C)O)n1 [AZD1775] (first compound max 10 µM, partner max 1 µM)
OUTPUT: -0.0007

---
INPUT: Hello, please tell me recorded Bliss excess for this one: NC1(C(=O)N[C@@H](CCO)c2ccc(Cl)cc2)CCN(c2ncnc3[nH]ccc23)CC1 [Capivasertib] + CC(=O)c1c(C)c2cnc(Nc3ccc(N4CCNCC4)cn3)nc2n(C2CCCC2)c1=O [Palbociclib] (first compound max 10 µM, 7x7, partner max 10 µM)
OUTPUT: -0.0344

###

Test system: ARH-77 (Non-Cancerous)
procedure_summary: combination Emax (second highest fraction inhibited in the dose matrix, 72 h); higher = more inhibition; extreme values may be limits of the assay
assay_endpoint: combination Emax
Form rule: numeric answer, no unit written next to it.

Recorded combination Emax, per entry:
INPUT: Hello, please tell me recorded combination Emax for this one: Cc1c2c(nn1C)CSCc1cc(n(C)n1)CSc1cc(c3ccccc3c1)OCCCc1c(C(=O)O)n(C)c3c-2c(Cl)ccc13 [AZD5991] + C=CCn1c(=O)c2cnc(Nc3ccc(N4CCN(C)CC4)cc3)nc2n1-c1cccc(C(C)(C)O)n1 [AZD1775] (first compound max 1 µM, partner max 1 µM)
OUTPUT: 0.995

INPUT: Hello, please tell me recorded combination Emax for this one: NC1(C(=O)N[C@@H](CCO)c2ccc(Cl)cc2)CCN(c2ncnc3[nH]ccc23)CC1 [Capivasertib] + Cn1cnc2c(F)c(Nc3ccc(Br)cc3Cl)c(C(=O)NOCCO)cc21 [Selumetinib] (first compound max 10 µM, 7x7, partner max 10 µM)
OUTPUT: 0.674

INPUT: Hello, please tell me recorded combination Emax for this one: Cc1c2c(nn1C)CSCc1cc(n(C)n1)CSc1cc(c3ccccc3c1)OCCCc1c(C(=O)O)n(C)c3c-2c(Cl)ccc13 [AZD5991] + C1CN(CCC1(C(=O)N[C@@H](CCO)C2=CC=C(C=C2)Cl)N)C3=NC=NC4=C3C=CN4 [Capivasertib] (first compound max 1 µM, 7x7, partner max 3 µM)
OUTPUT: 0.915

---
INPUT: Hello, please tell me recorded combination Emax for this one: COc1cccc(OCCCN)c1-c1cc(Nc2cnc(C#N)cn2)n[nH]1 [Prexasertib] + Cc1cc2ncnn2cc1Nc1ncc2c(n1)n(C1CCOCC1)c(=O)n2C [AZD7648] (first compound max 1 µM, 7x7, partner max 10 µM)
OUTPUT: 0.994
